molecular target: human Plasmin (human, UniProt P00747 97-580; P00747 581-810, limits assumed); experiment: cell-based or functional assay
Sequence (P00747 97-580 limits assumed, chain 1 of 2): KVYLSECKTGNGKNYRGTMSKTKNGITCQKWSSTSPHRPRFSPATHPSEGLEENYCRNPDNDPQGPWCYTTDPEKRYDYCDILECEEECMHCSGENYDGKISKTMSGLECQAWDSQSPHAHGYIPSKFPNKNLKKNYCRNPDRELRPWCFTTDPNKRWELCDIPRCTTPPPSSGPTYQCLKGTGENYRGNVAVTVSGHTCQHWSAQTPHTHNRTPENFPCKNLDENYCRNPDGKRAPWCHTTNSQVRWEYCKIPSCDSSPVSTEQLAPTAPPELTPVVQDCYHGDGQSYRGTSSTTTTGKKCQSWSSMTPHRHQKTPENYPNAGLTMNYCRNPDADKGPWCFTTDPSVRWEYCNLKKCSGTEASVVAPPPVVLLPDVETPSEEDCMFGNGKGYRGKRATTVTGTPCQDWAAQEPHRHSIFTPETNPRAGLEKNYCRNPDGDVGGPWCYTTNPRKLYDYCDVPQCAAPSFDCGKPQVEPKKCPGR
Sequence (P00747 581-810 limits assumed, chain 2 of 2): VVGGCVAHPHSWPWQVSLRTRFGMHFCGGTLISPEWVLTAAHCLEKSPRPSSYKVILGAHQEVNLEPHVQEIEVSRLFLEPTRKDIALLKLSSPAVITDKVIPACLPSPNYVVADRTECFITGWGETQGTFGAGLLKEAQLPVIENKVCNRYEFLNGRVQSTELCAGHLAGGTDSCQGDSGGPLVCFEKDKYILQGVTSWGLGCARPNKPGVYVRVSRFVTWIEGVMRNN
Reported IC50 [M], inhibition of plasmin proteolytic activity values are given for each entry in this list.

TPP-14318 hIgG1 (antibody, V domains shown) VH: EVQLLESGGGLVQPGGSLRLSCAASGFTFDDYAMSWVRQAPGKGLEWVSAIGTGGGTYYADSVKGRFTISRDNSKNTLYLQMNSLRAEDTAVYYCAREYYDSSGYYHLEYWGQGTLVTVSS VL: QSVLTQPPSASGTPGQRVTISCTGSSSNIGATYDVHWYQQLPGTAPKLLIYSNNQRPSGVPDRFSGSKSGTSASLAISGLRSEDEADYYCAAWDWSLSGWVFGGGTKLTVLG ... > 1e-05 M
TPP-14298 hIgG1 (antibody, V domains shown) VH: EVQLLESGGGLVQPGGSLRLSCAASGFTFDDYAMSWVRQAPGKGLEWVSAIGTGGGTYYADSVKGRFTISRDNSKNTLYLQMNSLRAEDTAVYYCASEYYDSSGYYHLDYWGQGTLVTVSS VL: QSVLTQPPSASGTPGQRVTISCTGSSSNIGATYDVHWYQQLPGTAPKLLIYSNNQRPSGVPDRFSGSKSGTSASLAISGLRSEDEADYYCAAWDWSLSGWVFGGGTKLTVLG ... > 5e-06 M
TPP-14305 hIgG1 (antibody, V domains shown) VH: EVQLLESGGGLVQPGGSLRLSCAASGFTFDDYAMSWVRQAPGKGLEWVSAIGTGGGTYYADSVKGRFTISRDNSKNTLYLQMNSLRAEDTAVYYCAREGYDSSGYYHLDYWGQGTLVTVSS VL: QSVLTQPPSASGTPGQRVTISCTGSSSNIGATYDVHWYQQLPGTAPKLLIYSNNQRPSGVPDRFSGSKSGTSASLAISGLRSEDEADYYCWAWDDSLSGWVFGGGTKLTVLG ... > 2e-06 M

Request: # input binder: TPP-14293 hIgG1 (antibody, V domains shown) VH: EVQLLESGGGLVQPGGSLRLSCAASGFTFDDYAMSWVRQAPGKGLEWVSAIGTGGGTYYADSVKGRFTISRDNSKNTLYLQMNSLRAEDTAVYYCDREYYDSSGYYHLDYWGQGTLVTVSS VL: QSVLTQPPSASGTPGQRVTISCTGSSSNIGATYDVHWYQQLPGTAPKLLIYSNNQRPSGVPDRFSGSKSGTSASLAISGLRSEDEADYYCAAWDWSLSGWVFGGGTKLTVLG ; wanted: its IC50 [M], inhibition of plasmin proteolytic activity
Result: > 5e-06 M
